- Tested on: monoclonal androstenedione antibody 3C3
- experiment-summary: Competitive chemiluminescent immunoassay (ADVIA Centaur), binding of A4-AE conjugates to antibody on solid phase
- Parameters: species or system sheep; key: a “+” indicates appreciable binding of the specified A4-AE conjugate to the specified antibody; a “−” indicates no appreciable binding was observed
- setup-conditions: binding of A4-AE conjugate to 3C3 antibody, chemiluminescence; lite reagent 20 ng/mL tracer
observable: 3C3

molecule="Cc1cc(C(=O)NCCC[N+](C)(CCCNC(=O)CCSC2CC3=CC(=O)CCC3(C)C3CCC4(C)C(=O)CCC4C23)CCCS(=O)(=O)[O-])cc(C)c1OC(=O)c1c2ccccc2[n+](CCCS(=O)(=O)[O-])c2ccccc12 (centres unmarked)" reported=+
molecule="Cc1cc(C(=O)NCCC[N+](C)(CCCNC(=O)OC2CC3C4CCC(=O)C4(C)CCC3C3(C)CCC(=O)C=C23)CCCS(=O)(=O)[O-])cc(C)c1OC(=O)c1c2ccccc2[n+](CCCS(=O)(=O)[O-])c2ccccc12 (stereo not drawn) [compound 5, A4(6β)-carbamate-NH-Z-ZAE]" reported=−
molecule="Cc1cc(C(=O)NCCC[N+](C)(CCCNC(=O)CCC(=O)OC2CC3C4CCC(=O)C4(C)CCC3C3(C)CCC(=O)C=C23)CCCS(=O)(=O)[O-])cc(C)c1OC(=O)c1c2ccccc2[n+](CCCS(=O)(=O)[O-])c2ccccc12 (stereo not drawn) [compound 4, A4(6β)-hemisuccinate-NH-Z-ZAE]" reported=+
molecule="Cc1cc(C(=O)NCCC[N+](C)(CCCNC(=O)CON=C2CCC3C4CCC5=CC(=O)CCC5(C)C4CCC23C)CCCS(=O)(=O)[O-])cc(C)c1OC(=O)c1c2ccccc2[n+](CCCS(=O)(=O)[O-])c2ccccc12 (centres unmarked)" reported=−

The record that follows has no 3C3 shown yet.
# input molecule: Cc1cc(C(=O)NCCC[N+](C)(CCCNC(=O)COC[C@]23CCC(=O)C=C2CCC2C3CC[C@]3(C)C(=O)CCC23)CCCS(=O)(=O)[O-])cc(C)c1OC(=O)c1c2ccccc2[n+](CCCS(=O)(=O)[O-])c2ccccc12 (some centres unmarked) ; wanted: its 3C3
−

* * *

- Test system: monoclonal androstenedione antibody 3H10
- experiment-summary: Competitive chemiluminescent immunoassay (ADVIA Centaur), binding of A4-AE conjugates to antibody on solid phase
- Set-up: species or system sheep; key: a “+” indicates appreciable binding of the specified A4-AE conjugate to the specified antibody; a “−” indicates no appreciable binding was observed
- setup-conditions: binding of A4-AE conjugate to 3H10 antibody, chemiluminescence; lite reagent 20 ng/mL tracer
observable: 3H10

Before answering, review these 4 worked examples.
molecule="Cc1cc(C(=O)NCCC[N+](C)(CCCNC(=O)COC[C@]23CCC(=O)C=C2CCC2C3CC[C@]3(C)C(=O)CCC23)CCCS(=O)(=O)[O-])cc(C)c1OC(=O)c1c2ccccc2[n+](CCCS(=O)(=O)[O-])c2ccccc12 (some centres unmarked) [compound 3, A4(19)-CME-NH-Z-ZAE]" reported=+
molecule="Cc1cc(C(=O)NCCC[N+](C)(CCCNC(=O)CCC(=O)OC2CC3C4CCC(=O)C4(C)CCC3C3(C)CCC(=O)C=C23)CCCS(=O)(=O)[O-])cc(C)c1OC(=O)c1c2ccccc2[n+](CCCS(=O)(=O)[O-])c2ccccc12 (stereo not drawn) [compound 4, A4(6β)-hemisuccinate-NH-Z-ZAE]" reported=+
molecule="Cc1cc(C(=O)NCCC[N+](C)(CCCNC(=O)OC2CC3C4CCC(=O)C4(C)CCC3C3(C)CCC(=O)C=C23)CCCS(=O)(=O)[O-])cc(C)c1OC(=O)c1c2ccccc2[n+](CCCS(=O)(=O)[O-])c2ccccc12 (stereo not drawn) [compound 5, A4(6β)-carbamate-NH-Z-ZAE]" reported=−
molecule="Cc1cc(C(=O)NCCC[N+](C)(CCCNC(=O)CON=C2CCC3C4CCC5=CC(=O)CCC5(C)C4CCC23C)CCCS(=O)(=O)[O-])cc(C)c1OC(=O)c1c2ccccc2[n+](CCCS(=O)(=O)[O-])c2ccccc12 (centres unmarked) [compound 2, A4(17)-CMO-Z-ZAE]" reported=−

# evaluate next
For the molecule shown here, Cc1cc(C(=O)NCCC[N+](C)(CCCNC(=O)CCSC2CC3=CC(=O)CCC3(C)C3CCC4(C)C(=O)CCC4C23)CCCS(=O)(=O)[O-])cc(C)c1OC(=O)c1c2ccccc2[n+](CCCS(=O)(=O)[O-])c2ccccc12 (stereo not drawn) [compound 6, A4(7α)-CETE-NH-Z-ZAE] , give the reported 3H10.
+

src = patent US20210003596A1
